Biological target: T1, CaBdf1 BD2 (GST-tagged, wild-type) (Candida albicans (strain SC5314 / ATCC …, UniProt Q5A4W8))
T1 chain: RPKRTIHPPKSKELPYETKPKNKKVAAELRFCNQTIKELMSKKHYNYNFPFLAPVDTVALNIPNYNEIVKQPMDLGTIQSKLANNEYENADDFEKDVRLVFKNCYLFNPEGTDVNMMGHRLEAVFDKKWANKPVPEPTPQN
Experiment: histone peptide array (Active Motif MODified), 1 uM GST-tagged bromodomain, anti-GST detection, normalized mean intensity
Square brackets hold non-standard residues; d marks the D form. Ends that are not written are not given here. Arg(Me2a) = CN(C)C(=N)NCCC[C@H](N)C(=O)O; Lys(Me3) = C[N+](C)(C)CCCC[C@H](N)C(=O)O; Arg(Me2s) = CN=C(NC)NCCC[C@H](N)C(=O)O; pT = C[C@@H](OP(=O)(O)O)[C@H](N)C(=O)O; Lys(Me2) = CN(C)CCCC[C@H](N)C(=O)O; pS = N[C@@H](COP(=O)(O)O)C(=O)O; Cit = NC(=O)NCCC[C@H](N)C(=O)O; Lys(Me) = CNCCCC[C@H](N)C(=O)O; Me2a = not defined here
metric: binding score
Give bare numbers.

Solved entries:
A[Arg(Me2s)]T[Lys(Me)]QTA[Arg(Me2a)][Lys(Me3)]STGGKAPRKQ ... 0.00592
SGRGKGGKGLGKGGAKRHR (S G Rme2a G Kac G G K G L G K G G A K R H R) [H4 1-19] ... 0.00703
ARTKQTA[Arg(Me2s)][Lys(Me)][pS]TGGKAPRKQ ... 0.00259
ARTKQTARKSTGGKAPRKQ (A Rme2s T Kme3 Q T A R K S T G G K A P R K Q) ... 0
ARTKQTARKSTGGKAPRKQ (A R T Kac Q T A Rme2s Kme2 S T G G K A P R K Q) ... 0.00296
ARTKQTARKSTGGKAPRKQ (A R T K Q T A R Kme1 S pT G G K A P R K Q) ... 0.0037
ARTKQTARKSTGGKAPRKQ (A R T K Q T A Rme2s Kme2 S pT G G K A P R K Q) ... 0.00259
PRKQLATKAAR(Me2a)K(Me)[pS]APATGG (reading uncertain) ... 0.00703

Below is a list of binders. For each, state its recorded binding score.
1. PRKQLATKAAR(Me2s)KSAPATGG
2. ARTKQTARKSTGGKAPRKQ (A Rme2s T Kme3 Q T A Rme2a Kme1 S T G G K A P R K Q)
3. ARTKQTARKSTGGKAPRKQ (A Rme2a T Kme1 Q T A Rme2a Kme1 S T G G K A P R K Q)
4. ARTKQTARKSTGGKAPRKQ (A R T K Q T A R K S pT G G Kac A P R K Q)
5. A[Arg(Me2s)]TK(Ac)QTA[Arg(Me2a)][Lys(Me)]STGGKAPRKQ
6. ARTKQTARKSTGGKAPRKQ (A R T K Q T A R K S pT G G K A P R K Q)

Result ::
[0.0037, 0.00222, 0.00259, 0.00999, 0.00296, 0.00037]

Below is a list of binders. For each, state its recorded binding score.
1. RKSAPATGGVKKPHRYRPG (R K S A P A T G G V Kme2 K P H R Y R P G) [H3 26-45]
2. [pS]GRGKQGGK(Ac)ARAK(Ac)AKSRSS [H2a 1-19]
3. PRKQLATKAA[Arg(Me2a)]K(Me)SAPATGG
4. ART[Lys(Me3)]QTARKSTGGKAPRKQ

Result ::
0.00555
0.00592
0.00444
0.00148

Below is a list of binders. For each, state its recorded binding score.
1. ARTKQTARKSTGGKAPRKQ (A R T K Q T A R K pS T G G Kac A P R K Q)
2. K[Lys(Me)][Lys(Me2)][Lys(Me3)]K(Ac)R[Arg(Me2s)]R[Arg(Me2a)]R[Cit]K[Lys(Me)]K(Ac)[Lys(Me3)]RK [background 01]

Result ::
1: 0.0107; 2: 0.00629

Below is a list of binders. For each, state its recorded binding score.
1. PRKQLATKAA[Arg(Me2a)]K[pS]APATGG
2. ARTKQTA[Arg(Me2a)]K(Ac)[pS]TGGKAPRKQ
3. ARTKQTARKSTGGKAPRKQ (A R T K Q T A R Kac S T G G Kac A P R K Q)
4. A[Arg(Me2a)][pT][Lys(Me3)]QTARKSTGGKAPRKQ
5. A[Arg(Me2s)]T[Lys(Me2)]QTA[Arg(Me2a)][Lys(Me)]STGGKAPRKQ
6. ARTKQTARKSTGGKAPRKQ (A Rme2a T Kac Q T A R Kme2 S T G G K A P R K Q)

Result ::
[0.00407, 0.00407, 0.0211, 0.00074, 0.0037, 0.00407]
